Taken from ChEMBL document CHEMBL1141652.

target: Disintegrin and metalloproteinase domain-containing protein 17 (Homo sapiens, UniProt P78536)
Sequence (P78536 whole entry, the tested form may be a part): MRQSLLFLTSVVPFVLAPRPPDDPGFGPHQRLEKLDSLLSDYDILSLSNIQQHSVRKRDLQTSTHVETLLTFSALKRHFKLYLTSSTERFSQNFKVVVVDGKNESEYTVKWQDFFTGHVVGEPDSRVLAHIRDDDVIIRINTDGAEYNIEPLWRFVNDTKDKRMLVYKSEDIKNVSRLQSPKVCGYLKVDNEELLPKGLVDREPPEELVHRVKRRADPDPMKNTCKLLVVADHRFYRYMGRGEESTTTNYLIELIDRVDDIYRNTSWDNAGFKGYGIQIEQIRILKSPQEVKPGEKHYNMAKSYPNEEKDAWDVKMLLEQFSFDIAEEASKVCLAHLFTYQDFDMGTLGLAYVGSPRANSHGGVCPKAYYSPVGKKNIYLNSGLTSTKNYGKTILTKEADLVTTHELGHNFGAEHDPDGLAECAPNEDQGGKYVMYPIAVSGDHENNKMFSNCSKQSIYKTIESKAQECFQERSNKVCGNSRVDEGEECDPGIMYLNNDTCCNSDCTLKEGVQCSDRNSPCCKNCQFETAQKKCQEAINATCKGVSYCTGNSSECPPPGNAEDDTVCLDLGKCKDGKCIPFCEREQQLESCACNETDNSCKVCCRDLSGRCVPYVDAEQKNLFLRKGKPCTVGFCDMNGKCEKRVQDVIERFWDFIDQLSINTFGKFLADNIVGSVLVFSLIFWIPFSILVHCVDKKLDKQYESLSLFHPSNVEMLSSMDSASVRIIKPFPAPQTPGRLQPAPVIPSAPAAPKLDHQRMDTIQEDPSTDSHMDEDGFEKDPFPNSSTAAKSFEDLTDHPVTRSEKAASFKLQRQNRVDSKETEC
measured-metric: Ki (nM)

{"columns": ["compound", "value-measured"],
 "data": [
  ["CCOC(=O)[C@]1(c2cccc(OCc3cc(C)nc4ccccc34)c2)C[C@H]1C(=O)NO", 16],
  ["COC(=O)[C@]1(c2cccc(OCCc3ccccc3)c2)C[C@H]1C(=O)NO", 290],
  ["COC(=O)[C@]1(c2cccc(Oc3ccc(C)cc3)c2)C[C@H]1C(=O)NO", 140],
  ["CNC(=O)[C@]1(c2cccc(OCc3cc(C)nc4ccccc34)c2)C[C@H]1C(=O)NO", 100],
  ["COC(=O)[C@]1(c2cccc(OCc3cccc(OC)c3)c2)C[C@H]1C(=O)NO", 110],
  ["COC(=O)[C@]1(c2cccc(OCc3cccc(C(F)(F)F)c3)c2)C[C@H]1C(=O)NO", 70],
  ["COC(=O)C1(Cc2cccc(OCc3ccccc3)c2)CC1C(=O)NO (racemic)", 4000],
  ["Cc1cc(COc2cccc([C@@]3(C(=O)N(C)Cc4ccccc4)C[C@H]3C(=O)NO)c2)c2ccccc2n1", 3000],
  ["Cc1cc(COc2cccc([C@@]3(C(=O)N(C)C)C[C@H]3C(=O)NO)c2)c2ccccc2n1", 2700]
]}

====

A collection of molecules and their measured Ki
target: Disintegrin and metalloproteinase domain-containing protein 17 (Homo sapiens, UniProt P78536)
measured-metric: Ki (nM)

{"columns": ["molecule", "limit-qualifier", "value-measured"],
 "data": [
  ["COC(=O)[C@]1(c2cccc(OC)c2)C[C@H]1C(=O)NO", "=", 3000],
  ["COC(=O)[C@]1(c2cccc(OCCc3ccc4ccccc4c3)c2)C[C@H]1C(=O)NO", "=", 60],
  ["COC(=O)[C@@]1(Cc2ccc(OCCc3cccc4ccccc34)cc2)C[C@@H]1C(=O)NO", ">", 100000],
  ["NC(=O)C1(c2cccc(OCc3ccccc3)c2)CC1C(=O)NO (centres undefined)", "=", 1200],
  ["COC(=O)[C@@]1(Cc2ccc(OCCc3ccc4ccccc4c3)cc2)C[C@@H]1C(=O)NO", ">", 100000],
  ["Cc1cc(COc2cccc([C@@]3(C(=O)OC(C)C)C[C@H]3C(=O)NO)c2)c2ccccc2n1", "=", 8],
  ["Cc1cc(COc2cccc([C@@]3(C(N)=O)C[C@H]3C(=O)NO)c2)c2ccccc2n1 (relative stereo)", "=", 700],
  ["COC(=O)C1(c2cccc(OCc3ccccc3)c2)CC1C(=O)NO (racemic)", "=", 500],
  ["Cc1cc(COc2ccc(C[C@]3(C(=O)N(C)C)C[C@@H]3C(=O)NO)cc2)c2ccccc2n1", "=", 1]
]}

====

molecular target: Disintegrin and metalloproteinase domain-containing protein 17 (Homo sapiens)
pKi: −log10 of the molar value.
measured-metric: pKi

{"columns": ["compound", "value-measured"],
 "data": [
  ["COC(=O)[C@]1(c2cccc(OCc3ccc(C(F)(F)F)cc3)c2)C[C@H]1C(=O)NO", 7.74],
  ["CC#CCOc1ccc(C[C@]2(C(=O)OC)C[C@@H]2C(=O)NO)cc1", 6.38],
  ["COC(=O)[C@]1(c2cccc(OCc3ccc4ccccc4c3)c2)C[C@H]1C(=O)NO", 5.52],
  ["Cc1cc(COc2cccc([C@@]3(C(=O)Nc4ccccc4)C[C@H]3C(=O)NO)c2)c2ccccc2n1", 7.96],
  ["COC(=O)[C@]1(c2cccc(Oc3ccc4ccccc4c3)c2)C[C@H]1C(=O)NO", 7.15],
  ["COC(=O)[C@]1(c2cccc(OCCc3cccc4ccccc34)c2)C[C@H]1C(=O)NO", 7.30],
  ["COC(=O)[C@@]1(Cc2ccc(OCC3CCCCC3)cc2)C[C@@H]1C(=O)NO", 4.59],
  ["NC(=O)C1(Cc2ccc(OCc3ccccc3)cc2)CC1C(=O)NO (racemic)", 6.44],
  ["CCOC(=O)[C@@]1(Cc2ccc(Oc3ccccc3)cc2)C[C@@H]1C(=O)NO", 5.51]
]}

====

target: Disintegrin and metalloproteinase domain-containing protein 17 (Homo sapiens, UniProt P78536)
A collection of compounds and their measured Ki

{"columns": ["compound-smiles", "Ki (nM)"],
 "data": [
  ["Cc1cc(COc2cccc([C@@]3(C(=O)NC4CCCCC4)C[C@H]3C(=O)NO)c2)c2ccccc2n1", 9],
  ["CNC(=O)[C@@]1(Cc2ccc(OCc3cc(C)nc4ccccc34)cc2)C[C@@H]1C(=O)NO", 14],
  ["COC(=O)[C@]1(c2cccc(Oc3ccccc3C)c2)C[C@H]1C(=O)NO", 240],
  ["COC(=O)[C@]1(c2cccc(Oc3ccccc3)c2)C[C@H]1C(=O)NO", 1100],
  ["COC(=O)[C@@]1(Cc2ccc(OCc3ccccc3Cl)cc2)C[C@@H]1C(=O)NO", 260],
  ["COC(=O)[C@]1(c2cccc(OCC3CCCCC3)c2)C[C@H]1C(=O)NO", 900],
  ["CC#CCOc1ccc(C[C@]2(C(N)=O)C[C@@H]2C(=O)NO)cc1", 80],
  ["COC(=O)[C@]1(c2cccc(OCc3ccc(Cl)c(Cl)c3)c2)C[C@H]1C(=O)NO", 11],
  ["CC#CCOc1cccc([C@@]2(C(=O)OC)C[C@H]2C(=O)NO)c1", 1600],
  ["COC(=O)[C@]1(c2cccc(OCc3cccc(F)c3)c2)C[C@H]1C(=O)NO", 80]
]}
